molecular target: Cytochrome P450 2D6 (Homo sapiens) (UniProt P10635); assay: Cytochrome P450 family 2 subfamily D member 6 (CYP2D6) small molecule antagonists: luciferase biochemical (cell-free) qHTS assay (AID 1645840); conditions: P450-Glo CYP2D6 enzyme, luciferin luminescence, 1 h; series mostly up to 57.4 µM; note: nearly all actives have a fitted effect of over 55% in size; note: potency is the fitted concentration of half-maximal effect
Sequence (P10635 whole entry, looked up): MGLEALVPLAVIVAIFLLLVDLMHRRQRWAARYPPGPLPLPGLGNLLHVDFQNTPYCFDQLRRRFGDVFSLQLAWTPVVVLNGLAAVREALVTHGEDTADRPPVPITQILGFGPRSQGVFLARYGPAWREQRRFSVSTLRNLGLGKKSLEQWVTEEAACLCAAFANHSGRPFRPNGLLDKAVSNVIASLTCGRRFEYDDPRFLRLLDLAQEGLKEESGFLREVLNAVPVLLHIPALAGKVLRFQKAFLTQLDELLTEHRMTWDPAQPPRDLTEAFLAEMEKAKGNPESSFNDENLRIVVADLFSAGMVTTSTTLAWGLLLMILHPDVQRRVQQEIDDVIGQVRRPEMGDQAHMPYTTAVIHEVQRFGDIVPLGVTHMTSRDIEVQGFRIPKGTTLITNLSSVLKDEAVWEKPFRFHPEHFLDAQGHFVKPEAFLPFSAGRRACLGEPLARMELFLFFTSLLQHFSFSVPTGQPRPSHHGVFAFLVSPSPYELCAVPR
Records with an inconclusive call do not appear. Activity calls are given as the source filed them. Calls come from the whole dose curve; as a rule, active = well fitted inhibition curve with a large enough effect in the repeat runs; inconclusive = weak or mixed curves; inactive = flat fitted curve, though single readings scatter.
reportedMetric: Potency

For orientation, consider the following solved cases.
compound	experimentalSystem	reading
COc1ccc2c(CNCCc3ccccc3OC)c(C(=O)O)n(Cc3ccc(F)cc3Cl)c2c1	Cytochrome P450 2D6 (Homo sapiens) (UniProt P10635)	12000 nM (active)
COCCn1c(SCC(=O)Nc2ccc(F)c(Cl)c2)nc2c(oc3ccccc32)c1=O	Cytochrome P450 2D6 (Homo sapiens) (UniProt P10635)	2390 nM (active)
CCCCCCCCC=CCCCCCCCC(=O)NCCOC(=O)CC(C(=O)O)S(=O)(=O)O (centres undefined)	Cytochrome P450 2D6 (Homo sapiens) (UniProt P10635)	13500 nM (active)
CN(C)S(=O)(=O)n1cc(/C=C(\NC(=O)c2ccccc2)C(=O)NCCCn2ccnc2)c2ccccc21	Cytochrome P450 2D6 (Homo sapiens) (UniProt P10635)	53.5 nM (active)
COc1ccc(CC(=O)Nc2c(C(=O)N3CCN(c4ccccc4F)CC3)oc3ccccc23)cc1OC	Cytochrome P450 2D6 (Homo sapiens) (UniProt P10635)	inactive

Reading of Potency for `CC1(C#N)CCN(c2c(C(=O)N3CCN(C(=O)C4CC4)CC3)cnc3ccc(Cl)cc23)CC1` with Cytochrome P450 2D6 (Homo sapiens) (UniProt P10635): inactive

So the reported Potency for `COc1ccccc1Cn1cc(C(=O)c2ccc(Cl)cc2)c(=O)c2cc3c(cc21)OCCO3` , on Cytochrome P450 2D6 (Homo sapiens) (UniProt P10635), turned out to be 2680 nM (active)

Field Potency (system: Cytochrome P450 2D6 (Homo sapiens) (UniProt P10635)) for entry `COc1ccc(C=CC(=O)O)cc1` = inactive

// compound CCC(C)Nc1cc(C(=O)NC2CC3CCC(C2)N3c2ccc(C(=O)C3CC3)cn2)c(C)cc1C(N)=O (centres undefined) , assay Cytochrome P450 2D6 (Homo sapiens) (UniProt P10635), Potency value: inactive

The values you see were collected from PubChem BioAssay (NCATS).
